# Measured target: UniProtKB Q15349
# Sequence (Q15349 whole entry, looked up): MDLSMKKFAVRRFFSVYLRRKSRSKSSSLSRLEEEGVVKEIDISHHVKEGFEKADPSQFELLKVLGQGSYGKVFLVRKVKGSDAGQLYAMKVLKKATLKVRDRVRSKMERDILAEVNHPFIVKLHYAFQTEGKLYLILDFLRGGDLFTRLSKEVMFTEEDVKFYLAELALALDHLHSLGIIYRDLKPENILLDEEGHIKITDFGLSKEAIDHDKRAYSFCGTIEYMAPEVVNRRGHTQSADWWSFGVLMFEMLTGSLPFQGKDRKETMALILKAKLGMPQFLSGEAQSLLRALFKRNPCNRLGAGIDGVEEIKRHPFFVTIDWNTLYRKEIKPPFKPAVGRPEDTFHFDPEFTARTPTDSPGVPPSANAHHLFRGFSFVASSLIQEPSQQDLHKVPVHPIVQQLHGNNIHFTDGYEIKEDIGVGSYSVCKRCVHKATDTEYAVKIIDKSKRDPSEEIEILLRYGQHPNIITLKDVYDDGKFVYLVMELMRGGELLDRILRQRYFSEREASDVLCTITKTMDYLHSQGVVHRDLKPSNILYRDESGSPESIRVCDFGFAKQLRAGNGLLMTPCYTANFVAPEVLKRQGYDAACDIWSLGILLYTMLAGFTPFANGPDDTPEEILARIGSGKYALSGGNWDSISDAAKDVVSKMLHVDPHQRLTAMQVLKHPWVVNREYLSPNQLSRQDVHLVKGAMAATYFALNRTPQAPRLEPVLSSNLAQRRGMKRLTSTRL
# Assay info: KINOMEscan competition binding
# Protocol conditions: compound 10.0 µM
Note to self: use Satisfied only for kinase still bound, per cent of control readings below 20%; a reading exactly at 20% still gets Not satisfied.

                                    molecule  discrete_label
 0  CCN1CCN(Cc2cc(NC(=O)c3cccc4cc(-c5ccc(/C=C6\SC(=O)NC6=O)o5)ccc34)cc(C(F)(F)F)c2)CC1   Not satisfied
 1  COc1cc(N2CCC(N3CCN(C)CC3)CC2)ccc1Nc1ncc2c(n1)N(C1CCCC1)C(C)CC(=O)N2C (centres undefined)       Satisfied
 2  O=C1NC(=O)/C(=C/c2ccc(-c3ccc4c(C(=O)Nc5cccc(C(F)(F)F)c5)cccc4c3)o2)S1   Not satisfied
 3  CSC1=NC(=O)/C(=C/c2c[nH]c(=O)c(-c3ccc(NS(C)(=O)=O)cc3)c2)S1       Satisfied
 4  COc1cc(N2CCN(C)CC2)ccc1Nc1ncc2c(n1)N(C)c1ccccc1C(=O)N2C       Satisfied
 5  COc1cc(N2CCN(C)CC2)ccc1Nc1ncc2c(n1)Nc1ccccc1NC2=O   Not satisfied
 6  CCN1C(=O)CCN(C2CCCC2)c2nc(Nc3ccc(N4CCC(O)CC4)cn3)ncc21   Not satisfied
 7  COc1cc(N2CCC(O)CC2)ccc1Nc1ncc2c(n1)N1CCc3cccc(c31)C(=O)N2C   Not satisfied
 8  N=C1NC(=O)/C(=C/c2ccc(-c3cccc4cc[nH]c34)o2)S1   Not satisfied
 9  O=C1NC(=S)S/C1=C\c1ccc(-c2cncc3ccccc23)o1       Satisfied
10  COc1cc(N2CCN(CCO)CC2)ccc1Nc1ncc2c(n1)N(C1CCCC1)CCC(=O)N2C       Satisfied
11  O=C1NC(=O)/C(=C/c2c[nH]c(=O)c(-c3ccc(C(=O)Nc4ccc(N5CCNCC5)cc4)cc3)c2)S1   Not satisfied
12  NS(=O)(=O)c1ccc(-c2ccc(/C=C3\SC(=S)N(CC(=O)O)C3=O)o2)cc1   Not satisfied
13  N=C1NC(=O)/C(=C/c2c[nH]c(=O)c(-c3ccc(N4CCNCC4)nc3)c2)S1   Not satisfied
14  CCN(CC)C1CCN(c2ccc(Nc3ncc4c(n3)N3CCCC3C=CN4C)c(OC(C)C)c2)CC1 (centres undefined)   Not satisfied
15  COc1cc(N2CCN(C)CC2)ccc1Nc1ncc2c(n1)N(C)c1sccc1C(=O)N2C       Satisfied
16  COc1cc(N2CCN(C)CC2)ccc1Nc1ncc2c(n1)N(C)c1ccccc1N(C)C2=O   Not satisfied
17  COc1cc(C(=O)NC2CCN(C)CC2)ccc1Nc1ncc2c(n1)N(C1CCC(O)CC1)CCC(=O)N2C (centres undefined)       Satisfied

###

# Measured target: RPS6KA6 KD2 (human)
# Assay info: KINOMEscan competition binding
# Protocol conditions: compound 10.0 µM
Measurement name: kinase still bound, per cent of control (%)

In [3]: df
Out[3]:
                           substance_smiles      measured_target  number
0  CN1C(=O)c2ccccc2N(C)c2nc(Nc3ccc(N4CCC(O)CC4)cn3)ncc21  RPS6KA6 KD2 (human)      30
1  COc1cc(N2CCN(CCO)CC2)ccc1Nc1ncc2c(n1)N(C1CCCC1)CCC(=O)N2C  RPS6KA6 KD2 (human)      20
2  COc1cc(N2CCC(O)CC2)ccc1Nc1ncc2c(n1)N(C)c1ccccc1C(=O)N2C  RPS6KA6 KD2 (human)      14

###

# Measured target: NUAK2 (human)
# Assay info: KINOMEscan competition binding
# Protocol conditions: compound 10.0 µM
Each entry below carries its reported kinase still bound, per cent of control.
Measurement name: kinase still bound, per cent of control (%)

>>> df
                           substance_smiles  measured_target                         measurement_name  number
0  COc1cc(N2CCN(C)CC2)ccc1Nc1ncc2c(n1)N(C)c1sccc1C(=O)N2C    NUAK2 (human)  kinase still bound, per cent of control       8
1  COc1cc(N2CCN(C)CC2)ccc1Nc1ncc2c(n1)Nc1ccccc1NC2=O    NUAK2 (human)  kinase still bound, per cent of control      71
2  N=C1NC(=O)/C(=C/c2c[nH]c(=O)c(-c3ccc(N4CCNCC4)nc3)c2)S1    NUAK2 (human)  kinase still bound, per cent of control      26
3  COc1cc(N2CCC(O)CC2)ccc1Nc1ncc2c(n1)N1CCc3cccc(c31)C(=O)N2C    NUAK2 (human)  kinase still bound, per cent of control      60

###

# Measured target: UniProt Q9H2K8
# Sequence (Q9H2K8 whole entry, looked up): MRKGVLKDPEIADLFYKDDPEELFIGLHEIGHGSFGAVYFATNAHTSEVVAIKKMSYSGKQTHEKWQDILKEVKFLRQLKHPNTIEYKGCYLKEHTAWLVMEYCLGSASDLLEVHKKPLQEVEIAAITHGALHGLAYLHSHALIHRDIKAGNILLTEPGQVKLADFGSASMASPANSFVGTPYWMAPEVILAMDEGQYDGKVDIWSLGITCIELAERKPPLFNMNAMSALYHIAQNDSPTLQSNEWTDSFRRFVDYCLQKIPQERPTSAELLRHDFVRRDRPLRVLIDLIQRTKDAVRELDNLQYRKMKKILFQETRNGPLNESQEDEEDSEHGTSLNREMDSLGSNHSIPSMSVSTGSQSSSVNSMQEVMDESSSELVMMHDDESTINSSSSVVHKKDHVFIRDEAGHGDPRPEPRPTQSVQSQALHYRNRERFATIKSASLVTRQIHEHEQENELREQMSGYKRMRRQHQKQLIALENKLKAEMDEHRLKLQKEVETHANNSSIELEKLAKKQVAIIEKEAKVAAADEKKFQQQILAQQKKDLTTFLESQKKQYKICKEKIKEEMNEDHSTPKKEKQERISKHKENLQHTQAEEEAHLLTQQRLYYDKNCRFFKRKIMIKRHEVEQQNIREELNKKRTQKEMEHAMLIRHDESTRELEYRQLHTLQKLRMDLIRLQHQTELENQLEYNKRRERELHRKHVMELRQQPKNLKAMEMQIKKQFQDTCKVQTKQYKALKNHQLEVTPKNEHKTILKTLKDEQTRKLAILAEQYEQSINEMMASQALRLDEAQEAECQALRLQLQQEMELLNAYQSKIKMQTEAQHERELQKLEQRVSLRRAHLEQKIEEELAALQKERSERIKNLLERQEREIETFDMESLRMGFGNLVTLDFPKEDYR
# Assay info: KINOMEscan competition binding
# Protocol conditions: compound 10.0 µM
Measurement name: kinase still bound, per cent of control (%)

>>> print(df.to_string())
                           substance_smiles                         measurement_name  number
0  COc1cc(N2CCN(C)CC2)ccc1Nc1ncc2c(n1)N(C)c1ccccc1C(=O)N2C  kinase still bound, per cent of control       2
1  CC(=O)Nc1ccc(-c2ccc(/C=C3\SC(=N)NC3=O)o2)c(O)c1  kinase still bound, per cent of control     8.6
2  CS(=O)(=O)Nc1ccc(-c2cncc(/C=C3\SC(=N)NC3=O)c2)cc1  kinase still bound, per cent of control     4.7
3  O=C1NC(=O)/C(=C/c2c[nH]c(=O)c(-c3ccc(C(=O)Nc4ccc(N5CCNCC5)cc4)cc3)c2)S1  kinase still bound, per cent of control      26
4  CN1C(=O)c2ccccc2N(C)c2nc(Nc3ccc(N4CCC(O)CC4)cc3)ncc21  kinase still bound, per cent of control     1.2

###

# Measured target: CAMK2G (human) (UniProt Q13555)
# Sequence (Q13555 whole entry, looked up): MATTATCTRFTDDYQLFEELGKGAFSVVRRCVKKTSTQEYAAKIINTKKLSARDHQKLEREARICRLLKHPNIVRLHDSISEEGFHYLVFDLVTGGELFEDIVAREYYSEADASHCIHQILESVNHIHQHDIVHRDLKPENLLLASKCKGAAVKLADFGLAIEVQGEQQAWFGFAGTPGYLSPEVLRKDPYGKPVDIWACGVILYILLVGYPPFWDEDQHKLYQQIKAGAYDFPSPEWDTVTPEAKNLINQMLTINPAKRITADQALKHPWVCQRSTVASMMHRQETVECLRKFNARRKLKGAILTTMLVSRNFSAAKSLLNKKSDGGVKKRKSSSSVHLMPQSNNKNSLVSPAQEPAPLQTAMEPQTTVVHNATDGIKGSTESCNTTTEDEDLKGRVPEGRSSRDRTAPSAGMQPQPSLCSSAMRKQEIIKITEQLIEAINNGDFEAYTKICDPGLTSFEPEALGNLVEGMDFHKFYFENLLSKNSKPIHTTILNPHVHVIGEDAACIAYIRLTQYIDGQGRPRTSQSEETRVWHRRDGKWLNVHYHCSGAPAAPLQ
# Assay info: KINOMEscan competition binding
# Protocol conditions: compound 10.0 µM
Measurement name: kinase still bound, per cent of control (%)

>>> df
                                   molecule  number
0  COc1cc(N2CCN(C)CC2)ccc1Nc1ncc2c(n1)Nc1ccccc1NC2=O     100
1  COc1cc(N2CCN(C)CC2)ccc1Nc1ncc2c(n1)N(C)c1sccc1C(=O)N2C      57
2  CCN1C(=O)CC(C(C)C)N(C2CCCC2)c2nc(Nc3ccc(C(=O)NC4CCN(C)CC4)cc3OC)ncc21 (centres undefined)      16
3  COc1cc(C(=O)NC2CCN(C)CC2)ccc1Nc1ncc2c(n1)N(C1CCCC1)C(C)CC(=O)N2C (centres undefined)      34
4  O=C1NC(=O)/C(=C/c2c[nH]c(=O)c(-c3ccc(N4CCNCC4)nc3)c2)S1      65
5  CN1CCN(c2ccc(C(=O)Nc3ncc4c(n3)N(C)c3ccccc3C(=O)N4C)cc2)CC1     100
6  N=C1NC(=O)/C(=C/c2ccc(-c3cncc4ccccc34)o2)S1      11
7  CN1C(=O)c2ccccc2N(C)c2nc(NS(=O)(=O)c3ccc(N)cc3)ncc21     100
8  CN1C(=O)c2ccccc2N(C)c2nc(Nc3ccc(N4CCC(O)CC4)cc3)ncc21     100

###

# Measured target: CSNK1G3 (human)
# Assay info: KINOMEscan competition binding
# Protocol conditions: compound 10.0 µM
Items are presented alongside their recorded kinase still bound, per cent of control.
Measurement name: kinase still bound, per cent of control (%)

In [3]: df
Out[3]:
                           substance_smiles  number
0  CN1C(=O)[C@H]2CCC[C@H]2N(C2CCCC2)c2nc(Nc3ccc(C(N)=O)cc3)ncc21      17
1  COc1cc(N2CCC(O)CC2)ccc1Nc1ncc2c(n1)N1CCc3cccc(c31)C(=O)N2C      90
2  CN1C(=O)[C@H]2CCC[C@H]2N(C2CCCC2)c2nc(Nc3ccc4ncccc4c3)ncc21      20
3  CN1C(=O)c2ccccc2N(C)c2nc(Nc3ccc(N4CCC(O)CC4)cc3)ncc21      67
4  CS(=O)(=O)Nc1ccc(-c2cncc(/C=C3\SC(=N)NC3=O)c2)cc1       1
5  COc1cc(N2CCN(C)CC2)ccc1Nc1ncc2c(n1)N(C)c1sccc1C(=O)N2C      82
6  CN1C(=O)c2ccccc2N(C)c2nc(NS(=O)(=O)c3ccc(N)cc3)ncc21     100
7  COc1cc(N2CCN(C)CC2)ccc1Nc1ncc2c(n1)Nc1ccccc1NC2=O      96
8  Nc1cccc(-c2cc(/C=C3\SC(=O)NC3=O)c[nH]c2=O)c1      13
9  CS(=O)(=O)Nc1ccc(-c2ncc(/C=C3\SC(=N)NC3=O)s2)cc1     8.3

###

# Measured target: TTK (human) (UniProt P33981)
# Sequence (P33981 whole entry, looked up): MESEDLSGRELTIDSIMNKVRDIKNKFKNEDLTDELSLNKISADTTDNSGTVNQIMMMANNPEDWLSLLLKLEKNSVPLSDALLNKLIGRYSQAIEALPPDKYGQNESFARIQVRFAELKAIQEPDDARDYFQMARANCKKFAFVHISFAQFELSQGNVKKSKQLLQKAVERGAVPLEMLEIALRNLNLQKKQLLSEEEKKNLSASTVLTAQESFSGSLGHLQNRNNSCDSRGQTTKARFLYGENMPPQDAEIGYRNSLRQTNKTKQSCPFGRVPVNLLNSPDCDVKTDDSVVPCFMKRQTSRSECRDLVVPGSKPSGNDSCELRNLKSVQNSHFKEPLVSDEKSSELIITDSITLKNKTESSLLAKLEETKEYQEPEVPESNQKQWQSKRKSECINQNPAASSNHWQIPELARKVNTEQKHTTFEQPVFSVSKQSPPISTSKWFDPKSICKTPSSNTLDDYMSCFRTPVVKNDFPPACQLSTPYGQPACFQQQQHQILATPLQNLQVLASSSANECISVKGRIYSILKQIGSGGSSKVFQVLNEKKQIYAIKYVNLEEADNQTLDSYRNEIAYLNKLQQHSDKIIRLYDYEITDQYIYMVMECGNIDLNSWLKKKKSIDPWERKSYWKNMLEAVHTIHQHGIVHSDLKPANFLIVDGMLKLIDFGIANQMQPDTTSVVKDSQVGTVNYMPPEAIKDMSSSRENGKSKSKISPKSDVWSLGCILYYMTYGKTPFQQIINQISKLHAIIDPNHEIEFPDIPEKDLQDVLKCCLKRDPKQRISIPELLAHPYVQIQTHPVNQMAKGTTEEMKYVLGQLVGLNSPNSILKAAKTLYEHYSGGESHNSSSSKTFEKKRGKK
# Assay info: KINOMEscan competition binding
# Protocol conditions: compound 10.0 µM
Measurement name: kinase still bound, per cent of control (%)

                                   compound                         measurement_name  number
0  CC(C)Oc1cc(N2CCC(O)CC2)ccc1Nc1ncc2c(n1)N1CCC[C@H]1CC(=O)N2C  kinase still bound, per cent of control       5
1  N=C1NC(=O)/C(=C/c2ccc(-c3ccc(C(N)=O)cc3O)o2)S1  kinase still bound, per cent of control      34
2  Cc1cn(-c2cc(NC(=O)c3cccc4cc(-c5ccc(/C=C6\SC(=N)NC6=O)o5)ccc34)cc(C(F)(F)F)c2)cn1  kinase still bound, per cent of control      18
3  COc1cc(N2CCN(C)CC2)ccc1Nc1ncc2c(n1)N(C)c1ccccc1C(=O)N2C  kinase still bound, per cent of control      26
4  N=C1NC(=O)/C(=C/c2ccc(-c3cnc4ccccc4c3)o2)S1  kinase still bound, per cent of control      25
5  COc1cc(C(=O)NC2CCN(C)CC2)ccc1Nc1ncc2c(n1)N(C1CCCC1)CC(C)C(=O)N2C (centres undefined)  kinase still bound, per cent of control     9.4
6  CN1C(=O)[C@H]2CCC[C@H]2N(C2CCCC2)c2nc(Nc3ccc(C(N)=O)cc3)ncc21  kinase still bound, per cent of control      14
7  CC(C)Oc1cc(N2CCC(O)CC2)ccc1Nc1ncc2c(n1)N(C1CCCC1)CCC(=O)N2C  kinase still bound, per cent of control     2.4
8  COc1cc(N2CCN(CCO)CC2)ccc1Nc1ncc2c(n1)N(C1CCCC1)CCC(=O)N2C  kinase still bound, per cent of control     1.8

Numbers sourced from the kinase profiling compilation of Christmann-Franck et al. (2016).
